meta.source: paper PMC4911921

Record form. Attribute: pKd. Fill in for each entry.
- SYSTEM: Hfq wt (Salmonella, UniProt P0A1R0 1-102)
- MEASUREMENT PROTOCOL: EMSA; specific site (Ks); 24 mM Tris-HCl pH 7.5, 50 mM NaCl, 50 mM NH4Cl, 50 mM KCl, 0.5 mM EDTA, 2 mM MgCl2, 5% glycerol, room temperature, 1 h; 6% native gel in 1x THEM2
- SETUP CONDITIONS: protein: recombinant; tags: C-terminal His6; chain copies: 6; label: 5'-32P
Answers are plain numbers, as −log10 of the molar value.

Observe how each entry below is paired with its result.
INSERT INTO assay_data (binder, value_type, test_value) VALUES
  ('ompD-187 ARN-2 (structured_RNA) RNA: GCCAUUGACAAACGCCUCGUUUAACAAUGGUUGUUGAUACACGCUAAGAAAAUUAUAAGGAUUAUUAAAAUGAAACUUAAGUUAGUGGCAGUGGCAGUGACUUCCCUGUUGGCAGCAGGCGUUGUAAAUGCAGCCGAGGUAUAUAACAAAGACGGCAAUAAACUGGAUCUGUACGGUAAAGUUCACG', 'pKd', 9.07),
  ('ompD-187 ARN-3 (structured_RNA) RNA: GCCAUUGACAAACGCCUCGUUUAACAAUGGUUGAGGAAACACGCUUUGAUAUUAUAAGGAUUAUUAAAAUGAAACUUAAGUUAGUGGCAGUGGCAGUGACUUCCCUGUUGGCAGCAGGCGUUGUAAAUGCAGCCGAGGUAUAUAACAAAGACGGCAAUAAACUGGAUCUGUACGGUAAAGUUCACG', 'pKd', 9.03);

// moving on: another record for pKd
input: For ompD-187 ARN-1 (structured_RNA) RNA: GCCAUUGACAAACGCCUCGUUUCGCAAUGGUUGAGGAAACACGCUAAGAAAAUUAUAAGGAUUAUUAAAAUGAAACUUAAGUUAGUGGCAGUGGCAGUGACUUCCCUGUUGGCAGCAGGCGUUGUAAAUGCAGCCGAGGUAUAUAACAAAGACGGCAAUAAACUGGAUCUGUACGGUAAAGUUCACG , what is its reported pKd?
output: 9.11
